# tgt: FLT3 (Homo sapiens, UniProt P36888)
# Sequence (P36888 27-993): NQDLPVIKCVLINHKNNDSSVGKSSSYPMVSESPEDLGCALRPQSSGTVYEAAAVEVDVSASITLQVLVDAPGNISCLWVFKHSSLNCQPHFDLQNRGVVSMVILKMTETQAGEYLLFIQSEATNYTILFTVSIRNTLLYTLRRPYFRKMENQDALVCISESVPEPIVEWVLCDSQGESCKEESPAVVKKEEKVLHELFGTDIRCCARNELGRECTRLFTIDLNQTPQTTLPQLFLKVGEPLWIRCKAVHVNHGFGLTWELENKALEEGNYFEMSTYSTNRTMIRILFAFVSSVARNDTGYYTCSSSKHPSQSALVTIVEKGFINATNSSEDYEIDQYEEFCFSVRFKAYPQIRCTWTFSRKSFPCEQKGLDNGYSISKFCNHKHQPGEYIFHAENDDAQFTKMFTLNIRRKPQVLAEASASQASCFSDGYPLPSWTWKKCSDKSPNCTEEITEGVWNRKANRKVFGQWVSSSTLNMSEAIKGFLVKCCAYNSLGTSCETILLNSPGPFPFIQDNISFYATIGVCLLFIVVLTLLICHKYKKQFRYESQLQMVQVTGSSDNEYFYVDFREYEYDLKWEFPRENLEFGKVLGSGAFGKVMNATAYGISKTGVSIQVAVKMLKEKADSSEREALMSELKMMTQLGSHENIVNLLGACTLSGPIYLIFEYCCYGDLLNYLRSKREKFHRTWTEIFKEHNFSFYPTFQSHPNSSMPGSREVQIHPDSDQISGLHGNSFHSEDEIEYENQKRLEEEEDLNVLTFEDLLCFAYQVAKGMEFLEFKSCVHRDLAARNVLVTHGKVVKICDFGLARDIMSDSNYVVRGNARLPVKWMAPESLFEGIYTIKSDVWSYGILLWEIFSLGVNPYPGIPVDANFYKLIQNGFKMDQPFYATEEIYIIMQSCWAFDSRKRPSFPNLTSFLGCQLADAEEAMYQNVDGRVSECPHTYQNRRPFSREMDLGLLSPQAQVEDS
# protocolNotes: NanoBRET target engagement assay in HEK-293 cells, FLT3
# Assay type: cell-based
# conditionDetails: Table 20; live HEK-293 cells, 1 h
# Experimental: The NanoBRET assay measures kinase engagement in real time in the context of the intact cell. […] Under the appropriate tracer conditions established by the manufacturer, quantitative intracellular affinity and relative potency can then be determined using Mass Action model equations. […] Assays were conducted following Promega assay protocol with some modifications. […] The donor emission wavelength (460 nm) and acceptor emission wavelength (600 nm) were measured in the En Visionplate reader. […]
experimentalEndpoint: IC50 (nM)

• COc1cn2ncc(-c3nc(N[C@H]4CNCC[C@@H]4F)ncc3F)c2nc1C(C)(C)O [Compound 6a] = 12
• COc1cn2ncc(-c3ccnc(N[C@H]4CNC[C@@H]4F)n3)c2nc1C1CC1 [Compound 8a] = 11
• COc1cn2ncc(-c3ccnc(N[C@H]4CNCC[C@@H]4F)n3)c2nc1C1CC1 [Compound 7a] = 9
